Catalogue of molecules with associated pIC50
system: 276233-004-R-J1-PDC KRAS spheroids with HUVEC/MSC, viability; assay: Anticancer human tumor 276233-004-R-J1-PDC patient-derived colon adenocarcinoma cell line growth inhibition [KRAS2]; details: curve of first compound; second compound 3.16 µM
For clarity, pIC50 is expressed as the negative log10 of concentration in mol/L.

molecule	target_or_test_system	metric_name	observed_value
COc1cc(Nc2ncc3c(n2)-c2ccc(Cl)cc2C(c2c(F)cccc2OC)=NC3)ccc1C(=O)O + CC1OCC2(CCN(c3cnc(Sc4ccnc(N)c4Cl)c(N)n3)CC2)C1N	276233-004-R-J1-PDC KRAS spheroids with HUVEC/MSC, viability	pIC50	6.06
CCNC(=O)CC1N=C(c2ccc(Cl)cc2)c2cc(OC)ccc2-n2c(C)nnc21 (stereo not given) + CC1OCC2(CCN(c3cnc(Sc4ccnc(N)c4Cl)c(N)n3)CC2)C1N	276233-004-R-J1-PDC KRAS spheroids with HUVEC/MSC, viability	pIC50	6.41
CC(=O)Nc1cccc(-n2c(=O)n(C3CC3)c(=O)c3c(Nc4ccc(I)cc4F)n(C)c(=O)c(C)c32)c1 + C=CC(=O)N1CCN(c2nc(=O)n(-c3c(C)ccnc3C(C)C)c3nc(-c4c(O)cccc4F)c(F)cc23)C(C)C1	276233-004-R-J1-PDC KRAS spheroids with HUVEC/MSC, viability	pIC50	8.19

# ---- query molecule ----
The reported value for O=C(c1cc(Cc2n[nH]c(=O)c3ccccc23)ccc1F)N1CCN(C(=O)C2CC2)CC1 + CC1OCC2(CCN(c3cnc(Sc4ccnc(N)c4Cl)c(N)n3)CC2)C1N in terms of pIC50 is 6.63

====

tested on: 276233-004-R-J1-PDC KRAS spheroids with HUVEC/MSC, viability; experiment: Anticancer human tumor 276233-004-R-J1-PDC cell line growth inhibition [KRAS2]; conditions: second compound 0.316 µM; first compound 1 µM; stronger effect = lower value;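 also: cells exposed to agents for seven days before viability read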;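 as to viability, T/C: 100% = DMSO vehicle control wells and lower values mean fewer viable cells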
Catalogue of molecules with associated viability, T/C
Just the number please, in %, no unit attached.

The following molecules have reported results that may help.
molecule	target_or_test_system	metric_name	observed_value
CCNC(=O)CC1N=C(c2ccc(Cl)cc2)c2cc(OC)ccc2-n2c(C)nnc21 (stereo not given) + C=CC(=O)N1CCN(c2nc(=O)n(-c3c(C)ccnc3C(C)C)c3nc(-c4c(O)cccc4F)c(F)cc23)C(C)C1	276233-004-R-J1-PDC KRAS spheroids with HUVEC/MSC, viability	viability, T/C	81.5
COc1cc(Nc2ncc3c(n2)-c2ccc(Cl)cc2C(c2c(F)cccc2OC)=NC3)ccc1C(=O)O + CC1OCC2(CCN(c3cnc(Sc4ccnc(N)c4Cl)c(N)n3)CC2)C1N	276233-004-R-J1-PDC KRAS spheroids with HUVEC/MSC, viability	viability, T/C	82.4
Cn1nccc1Nc1nccc(-c2cc3c(s2)C(C)(C)N(CCN2CCOCC2)C3=O)n1 + C=CC(=O)N1CCN(c2nc(OCC3CCCN3C)nc3c2CCN(c2cccc4cccc(C)c24)C3)CC1CC#N	276233-004-R-J1-PDC KRAS spheroids with HUVEC/MSC, viability	viability, T/C	77.8

The reported value for CCN1CCN(Cc2ccc(Nc3ncc(F)c(-c4cc(F)c5nc(C)n(C(C)C)c5c4)n3)nc2)CC1 + COc1cc2nc(C)nc(NC(C)c3cc(N)cc(C(F)(F)F)c3)c2cc1OC1CCOC1 in terms of viability, T/C is 86.8

The reported value for CCN1CCN(Cc2ccc(Nc3ncc(F)c(-c4cc(F)c5nc(C)n(C(C)C)c5c4)n3)nc2)CC1 + C=CC(=O)N1CCN(c2nc(OCC3CCCN3C)nc3c2CCN(c2cccc4cccc(C)c24)C3)CC1CC#N in terms of viability, T/C is 90.7

Values were extracted from PubChem BioAssay AID1963873.
